Molecular target: PCSK9 (Homo sapiens (Human), UniProt Q8NBP7)
Sequence (Q8NBP7 153-692): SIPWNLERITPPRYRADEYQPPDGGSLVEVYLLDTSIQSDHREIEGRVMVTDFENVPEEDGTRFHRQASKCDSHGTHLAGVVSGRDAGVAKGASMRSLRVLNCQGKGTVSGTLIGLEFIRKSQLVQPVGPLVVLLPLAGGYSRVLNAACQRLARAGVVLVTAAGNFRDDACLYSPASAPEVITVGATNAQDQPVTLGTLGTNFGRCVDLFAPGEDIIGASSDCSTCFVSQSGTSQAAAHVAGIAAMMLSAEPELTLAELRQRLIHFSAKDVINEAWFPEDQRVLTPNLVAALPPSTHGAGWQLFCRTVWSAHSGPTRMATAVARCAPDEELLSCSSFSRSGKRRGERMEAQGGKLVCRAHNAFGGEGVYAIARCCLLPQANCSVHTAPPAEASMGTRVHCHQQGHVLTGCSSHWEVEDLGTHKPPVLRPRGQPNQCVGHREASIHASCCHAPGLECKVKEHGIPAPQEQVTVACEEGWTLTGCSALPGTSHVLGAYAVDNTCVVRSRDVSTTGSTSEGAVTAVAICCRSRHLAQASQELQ
Assay: PCSK9 Alexa FRET Standard assay (displacement of AlexaFluor647 tagged cyclic peptide Reagent A)
Format: binding
Details: PCSK9 Alexa FRET Standard assay, 0.5 nM PCSK9, 20 nM AF cyclic peptide Reagent A; read-out: IC50
Method: A solution containing 1 nM biotinylated PCSK9+2.5 nM Lance Streptavidin Europium (Strep-Eu) was made in 50 mM HEPES pH 7.4, 0.15 M NaCl, 5 mM CaCl2), 0.01% BSA, and 0.01% Surfactant P20. […] The reaction was incubated at room temperature for at least two hours prior to fluorescence measurements using an Envision Multilabel Reader. IC50 values were determined by fitting data to a sigmoidal dose-response curve using nonlinear regression. […]
Starred links: 1 amine or outer side, 2 acyl side, 3 side chain; linkers in the order of their positions; H or OH if unused. Positions of bridges follow the written chain, without caps; N, C: chain ends. Non-standard residues stand in square brackets, D forms with d. Residues, ends and D or L forms follow the SMILES beside them. Triazole bridges read from a SMILES are 1,4-linked. *: point of attachment. Trp(5-OH) = N[C@@H](Cc1c[nH]c2ccc(O)cc12)C(=O)O; Phe(4-COOH) = N[C@@H](Cc1ccc(C(=O)O)cc1)C(=O)O; Trp(5-F) = N[C@@H](Cc1c[nH]c2ccc(F)cc12)C(=O)O; Pro(cis-4-F) = O=C(O)[C@@H]1C[C@H](F)CN1; X17 = O=C(CCSCc1ccc(CSCCN[*:1])cc1)[*:2]; Lys(N3) = [N-]=[N+]=NCCCC[C@H](N)C(=O)O; Pro(4S-NH2) = N[C@@H]1CN[C@H](C(=O)O)C1; mXylylene = c1cc(C[*:1])cc(C[*:2])c1; AEF = NCCOc1ccc(C[C@H](N)C(=O)O)cc1; Aad = N[C@@H](CCCC(=O)O)C(=O)O; NMeD = CN[C@@H](CC(=O)O)C(=O)O; αMeP = C[C@@]1(C(=O)O)CCCN1; Hpra = C#CCC[C@H](N)C(=O)O; X51 = COCCOCCOCCOCCC(=O)*; Glycolyl = O=C(CO)*; Ava = NCCCCC(=O)O; Mpa = O=C(O)CCS
Please provide measured IC50 for the entries that follow.

Batch: IC50 for all items listed.
1. NCCCC[C@@H]1NC(=O)CCCn2cc(nn2)CCC[C@@H](C(N)=O)NC(=O)[C@@H]2CCCN2C(=O)[C@H](Cc2ccc(O)cc2)NC(=O)[C@H](Cc2c[nH]cn2)NC(=O)[C@H](CC(=O)O)NC(=O)[C@H](Cc2c[nH]c3ccc(F)cc23)NC(=O)[C@H](Cc2c[nH]c3ccc(F)cc23)NC(=O)CNC1=O
2. COc1ccc(C[C@@H]2NC(=O)[C@H]([C@@H](C)O)NC(=O)[C@@H]3C[C@H](F)CN3C(=O)[C@H](Cc3c[nH]c4ccc(F)cc34)NC(=O)[C@H](Cc3c[nH]c4ccc(F)cc34)NC(=O)[C@@H](C)NC(=O)CCCCNC(=O)c3ccc(cc3)C[C@@H](C(N)=O)NC(=O)[C@]3(C)CCCN3C2=O)cc1 [Compound 076] ([Ava][dA][Trp(5-F)][Trp(5-F)][Pro(cis-4-F)]TY(Me)[αMeP][Phe(4-COOH)]-NH2; lactam N-9)
3. COc1ccc(C[C@@H]2NC(=O)[C@H](CCCC(=O)O)NC(=O)[C@@H]3C[C@H](N)CN3C(=O)[C@H](Cc3c[nH]c4ccc(F)cc34)NC(=O)[C@H](Cc3c[nH]c4ccc(F)cc34)NC(=O)[C@@H](C)NC(=O)[C@H](C)NC(=O)CCSCc3ccc(cc3)CSCCNC(=O)[C@]3(C)CCCN3C2=O)cc1 [Compound 345] (cyclo(A[dA][Trp(5-F)][Trp(5-F)][Pro(4S-NH2)][Aad]Y(Me)[αMeP][X17]))
4. CC(=O)N[C@H]1CCCc2cn(nn2)-c2ccc(cc2)C[C@@H](C(N)=O)NC(=O)[C@]2(C)CCCN2C(=O)[C@H](Cc2ccc(O)cc2)NC(=O)[C@H](Cc2cnc[nH]2)NC(=O)[C@H](CC(=O)O)NC(=O)[C@H](Cc2c[nH]c3ccc(F)cc23)NC(=O)[C@H](Cc2c[nH]c3ccc(F)cc23)NC(=O)CNC(=O)[C@H](C)NC1=O
5. CCCCCCCCCCCCCCCC(=O)N[C@@H](CCC(=O)NCCOCCOCC(=O)NCCOCCOCC(=O)NCCCC[C@H](NC(C)=O)C(=O)NCCOCCOCC(=O)N[C@@H]1CSCc2cccc(c2)CSC[C@@H](C(N)=O)NC(=O)[C@]2(C)CCCN2C(=O)[C@H](Cc2ccc(O)cc2)NC(=O)[C@H]([C@@H](C)O)NC(=O)N2C[C@@H](F)C[C@H]2C(=O)[C@H](Cc2c[nH]c3ccc(F)cc23)NC(=O)[C@H](Cc2c[nH]c3ccc(F)cc23)NC(=O)[C@@H](C)NC(=O)[C@H](C)NC1=O)C(=O)O

## Result
1: 100 to 1000 nM; 2: 100 to 1000 nM; 3: 21000 to 50000 nM; 4: 21000 to 50000 nM; 5: 0.11 to 100 nM

Batch: IC50 for all items listed.
1. COCCOCCOCCOCCC(=O)NCCCC[C@@H]1NC(=O)CCSCc2cccc(c2)CSC[C@@H](C(N)=O)NC(=O)[C@]2(C)CCCN2C(=O)[C@H](Cc2ccc(O)cc2)NC(=O)[C@H](Cc2cnc[nH]2)NC(=O)[C@H](CC(=O)O)NC(=O)[C@H](Cc2c[nH]c3ccc(F)cc23)NC(=O)[C@H](Cc2c[nH]c3ccc(F)cc23)NC(=O)CNC1=O [Compound 484] ([Mpa]K(X51)G[Trp(5-F)][Trp(5-F)]DHY[αMeP]C-NH2; linker 1-10 via mXylylene)
2. CC(=O)N[C@H]1CCCCn2cc(nn2)CC[C@@H](C(N)=O)NC(=O)[C@]2(C)CCCN2C(=O)[C@H](Cc2ccc(O)cc2)NC(=O)[C@H](Cc2cnc[nH]2)NC(=O)[C@H](CC(=O)O)NC(=O)[C@H](Cc2c[nH]c3ccc(F)cc23)NC(=O)[C@H](Cc2c[nH]c3ccc(F)cc23)NC(=O)CNC(=O)[C@H](C)NC1=O [Compound 332] (Ac-[Lys(N3)]AG[Trp(5-F)][Trp(5-F)]DHY[αMeP][Hpra]-NH2; triazole 1-10)
3. C[C@@]12CCCN1C(=O)[C@H](Cc1ccc(O)cc1)NC(=O)[C@H](Cc1cnc[nH]1)NC(=O)[C@H](CC(=O)O)NC(=O)[C@H](Cc1c[nH]c3ccc(F)cc13)NC(=O)[C@H](Cc1c[nH]c3ccc(O)cc13)NC(=O)CNC(=O)[C@H](CCCCN)NC(=O)CCSCc1cccc(c1)CSC[C@@H](C(N)=O)NC2=O [Compound 414] ([Mpa]KG[Trp(5-OH)][Trp(5-F)]DHY[αMeP]C-NH2; linker 1-10 via mXylylene)
4. COc1ccc(C[C@@H]2NC(=O)[C@H]([C@@H](C)O)NC(=O)[C@@H]3C[C@H](F)CN3C(=O)[C@H](Cc3c[nH]c4ccc(F)cc34)NC(=O)[C@H](Cc3c[nH]c4ccc(F)cc34)NC(=O)[C@@H](C)NC(=O)[C@H](CCCCN)NC(=O)[C@@H](NC(=O)CO)CC(=O)NCCOc3ccc(cc3)C[C@@H](C(N)=O)NC(=O)[C@]3(C)CCCN3C2=O)cc1 [Compound 115] (Glycolyl-DK[dA][Trp(5-F)][Trp(5-F)][Pro(cis-4-F)]TY(Me)[αMeP][AEF]-NH2; lactam 1-10)

## Result
["0.11 to 100 nM", "100 to 1000 nM", "100 to 1000 nM", "100 to 1000 nM"]

## Task # IC50 lookup, item CN1C(=O)[C@H](Cc2c[nH]c3ccc(F)cc23)NC(=O)[C@H](Cc2c[nH]c3ccc(F)cc23)NC(=O)CNC(=O)[C@H](CCCCN)NC(=O)CCSCc2cccc(c2)CSC[C@@H](C(N)=O)NC(=O)[C@@H]2CCCN2C(=O)[C@H](Cc2ccc(O)cc2)NC(=O)[C@H](Cc2cnc[nH]2)NC(=O)[C@@H]1CC(=O)O [Compound 171] ([Mpa]KG[Trp(5-F)][Trp(5-F)][NMeD]HYPC-NH2; linker 1-10 via mXylylene)
## Result 100 to 1000 nM
